Recorded half-life at 1 µM by entry
assay: Stability in human hepatocytes assessed as half life at 1 uM incubated upto 180 mins by LC-MS/MS analysis; type: ADME, cell-based, Hepatocyte
Test Readout: half-life at 1 µM (h)

Item Smiles	Test Readout	Comparison Sign	Result Value
C[C@@H](Oc1ccc2[nH]nc(-c3ccc(N4CC5(C4)CN(S(C)(=O)=O)C5)nc3)c2c1)c1c(Cl)cnnc1Cl	half-life at 1 µM	=	0.3
C[C@@H](Oc1ccc2[nH]nc(-c3cnc(N4CC5(C4)CN(S(C)(=O)=O)C5)cn3)c2c1)c1c(Cl)cncc1Cl	half-life at 1 µM	>	1.67
C[C@@H](Oc1ccc2[nH]nc(-c3ccc(N4CCC5(CC4)CN(C)CC(=O)N5)nc3)c2c1)c1c(Cl)cncc1Cl	half-life at 1 µM	=	0.6
C[C@@H](Oc1ccc2[nH]nc(-c3ccc(N4CC5(C4)CN(S(C)(=O)=O)C5)nc3)c2c1)c1c(Cl)cncc1Cl	half-life at 1 µM	>	1.67
C[C@@H](Oc1ccc2[nH]nc(-c3ccc(N4CC5(CCS(=O)(=O)C5)C4)nc3)c2c1)c1c(Cl)cncc1Cl	half-life at 1 µM	=	1.7

Origin of the recorded values: ChEMBL document CHEMBL5579895
